A collection of molecules and their measured IC50
Molecular target: ALK tyrosine kinase receptor (Homo sapiens, UniProt Q9UM73, L1196M)
Sequence (Q9UM73 19-1620 L1196M limits assumed): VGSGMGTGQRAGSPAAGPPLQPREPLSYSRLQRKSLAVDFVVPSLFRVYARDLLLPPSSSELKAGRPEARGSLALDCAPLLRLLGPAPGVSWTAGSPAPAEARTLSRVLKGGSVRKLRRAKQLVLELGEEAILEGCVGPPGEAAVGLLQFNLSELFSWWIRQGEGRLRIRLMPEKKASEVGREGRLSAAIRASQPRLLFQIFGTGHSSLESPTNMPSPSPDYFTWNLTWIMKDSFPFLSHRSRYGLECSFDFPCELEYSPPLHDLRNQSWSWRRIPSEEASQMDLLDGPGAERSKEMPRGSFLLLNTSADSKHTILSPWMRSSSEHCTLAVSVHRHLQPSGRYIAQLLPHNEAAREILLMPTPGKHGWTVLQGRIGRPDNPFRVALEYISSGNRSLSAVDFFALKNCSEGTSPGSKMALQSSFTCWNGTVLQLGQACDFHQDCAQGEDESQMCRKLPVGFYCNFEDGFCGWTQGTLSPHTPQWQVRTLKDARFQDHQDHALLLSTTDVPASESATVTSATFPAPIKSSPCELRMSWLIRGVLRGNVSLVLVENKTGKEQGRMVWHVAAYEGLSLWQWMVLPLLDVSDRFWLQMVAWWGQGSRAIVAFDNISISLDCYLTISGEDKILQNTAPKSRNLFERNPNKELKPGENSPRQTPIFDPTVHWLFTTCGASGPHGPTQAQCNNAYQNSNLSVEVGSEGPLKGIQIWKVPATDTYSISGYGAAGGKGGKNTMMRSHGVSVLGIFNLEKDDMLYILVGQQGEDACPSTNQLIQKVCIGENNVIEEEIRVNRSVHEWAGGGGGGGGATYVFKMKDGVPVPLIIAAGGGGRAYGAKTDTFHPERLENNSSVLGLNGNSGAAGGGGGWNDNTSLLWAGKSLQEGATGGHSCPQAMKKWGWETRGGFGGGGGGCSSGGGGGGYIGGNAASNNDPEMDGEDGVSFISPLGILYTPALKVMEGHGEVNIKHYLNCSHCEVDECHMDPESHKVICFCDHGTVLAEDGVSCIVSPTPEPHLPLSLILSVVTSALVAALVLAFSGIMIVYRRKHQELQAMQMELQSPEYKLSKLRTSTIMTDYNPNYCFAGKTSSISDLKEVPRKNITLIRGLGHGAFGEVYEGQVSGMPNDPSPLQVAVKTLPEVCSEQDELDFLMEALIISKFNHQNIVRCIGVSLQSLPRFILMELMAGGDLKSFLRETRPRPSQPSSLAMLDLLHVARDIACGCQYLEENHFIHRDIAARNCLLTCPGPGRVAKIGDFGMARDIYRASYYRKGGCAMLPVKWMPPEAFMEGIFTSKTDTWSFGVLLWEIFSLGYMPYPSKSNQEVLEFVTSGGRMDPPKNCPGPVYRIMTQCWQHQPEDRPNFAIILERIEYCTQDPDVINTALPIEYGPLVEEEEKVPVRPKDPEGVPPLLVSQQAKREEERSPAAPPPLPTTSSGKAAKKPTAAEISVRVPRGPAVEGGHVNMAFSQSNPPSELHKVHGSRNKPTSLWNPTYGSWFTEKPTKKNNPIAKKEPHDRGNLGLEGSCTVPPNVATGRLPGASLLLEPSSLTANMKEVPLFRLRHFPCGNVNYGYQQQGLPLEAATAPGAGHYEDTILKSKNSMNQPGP
Experiment: Inhibition of ALK L1196M mutant (unknown origin) after 30 mins by HTRF assay
Answer with a number only, understood to be in µM.

Example molecules with recorded IC50:
# molecule, obs_value
rows = [
    ("COc1cc2c(cc1Nc1ncc(Cl)c(Nc3ccccc3S(=O)(=O)C(C)C)n1)C(C)(C)/C(=N/N1CCOCC1)CC2", 0.222),
    ("COc1cc2c(cc1Nc1ncc(Cl)c(Nc3ccccc3S(=O)(=O)C(C)C)n1)CC/C(=N\\NC(N)=O)C2(C)C", 0.042),
]

State the recorded IC50 for this entry: COc1cc2c(cc1Nc1ncc(Cl)c(Nc3ccccc3S(=O)(=O)C(C)C)n1)CCC(N)C2(C)C (stereo not drawn)
0.0015

# lookup: IC50 of COc1cc2c(cc1Nc1ncc(Cl)c(Nc3ccccc3S(=O)(=O)C(C)C)n1)C(C)(C)/C(=N/NC(=N)N)CC2
0.1

State the recorded IC50 for this entry: COc1cc2c(cc1Nc1ncc(Cl)c(Nc3ccccc3S(=O)(=O)C(C)C)n1)C(C)(C)/C(=N/N1CCN(C)CC1)CC2
0.2

Item under review: COc1cc2c(cc1Nc1ncc(Cl)c(Nc3ccccc3S(=O)(=O)C(C)C)n1)CC/C(=N\NC(C)=O)C2(C)C . Reported IC50?
0.04

I am curious: what IC50 value has been reported for COc1cc2c(cc1Nc1ncc(Cl)c(Nc3ccccc3S(=O)(=O)C(C)C)n1)C(C)(C)C(N)CC2 (stereo not drawn) ?
0.094

GET /values?readout=IC50&item= COc1cc2c(cc1Nc1ncc(Cl)c(Nc3ccccc3S(=O)(=O)C(C)C)n1)CC/C(=N\NC(=N)N)C2(C)C
0.037

---

Target: ALK tyrosine kinase receptor (Homo sapiens, UniProt Q9UM73, L1196M)
Assay: Inhibition of ALK L1196M mutant (unknown origin) after 30 mins by HTRF assay
pIC50: −log10 of the molar value.
Criterion: pIC50 meeting or surpassing 7. Met: met. Not met: not met.

# molecule, classification
measured = [
    ("COc1cc2c(cc1Nc1ncc(Cl)c(Nc3ccccc3S(=O)(=O)C(C)C)n1)CCC(O)C2(C)C (centres undefined)", "met"),
]

Exam item: decide whether the reported pIC50 for COc1cc2c(cc1Nc1ncc(Cl)c(Nc3ccccc3S(=O)(=O)C(C)C)n1)CC/C(=N\N1CCN(C)CC1)C2(C)C is at least 7.
met

# bool: pIC50 of COc1cc2c(cc1Nc1ncc(Cl)c(Nc3ccccc3S(=O)(=O)C(C)C)n1)C(C)(C)/C(=N/O)CC2 >= 7
not met

Reported pIC50 at or above 7? COc1cc2c(cc1Nc1ncc(Cl)c(Nc3ccccc3S(=O)(=O)C(C)C)n1)C(C)(C)/C(=N/NC(C)=O)CC2
not met

Does the molecule COc1cc2c(cc1Nc1ncc(Cl)c(Nc3ccccc3S(=O)(=O)C(C)C)n1)CCC(NC(=O)CO)C2(C)C (centres undefined) have recorded pIC50 that is 7 or more?
met

For this molecule, is measured pIC50 7 or higher? COc1cc2c(cc1Nc1ncc(Cl)c(Nc3ccccc3S(=O)(=O)C(C)C)n1)CC/C(=N\N1CCOCC1)C2(C)C
met

Please tell me: is the molecule COc1cc2c(cc1Nc1ncc(Cl)c(Nc3ccccc3S(=O)(=O)C(C)C)n1)CCC(NC(=O)CN(C)C)C2(C)C (centres undefined) at or over 7 in terms of pIC50?
met

---

Assay: Half life in cannulated Sprague Dawley rat at 10 mg/kg administered through oral gavage by LC/MS/MS analysis
Assay type: ADME, organism-based
Conditions: in vivo
# half-life listing for each entry below
Hi! Could you send only the number? It should be in h, unit omitted.

# molecule, unit_symbol, half-life
records = [
    ("COc1cc2c(cc1Nc1ncc(Cl)c(Nc3ccccc3S(=O)(=O)C(C)C)n1)CC/C(=N\\N1CCN(C)CC1)C2(C)C", "h", 3.04),
]

Pending molecule:
Query: half-life; subject: COc1cc2c(cc1Nc1ncc(Cl)c(Nc3ccccc3S(=O)(=O)C(C)C)n1)CCC(N)C2(C)C (configuration not stated)
9.5

---

Test: Tmax in cannulated Sprague Dawley rat at 10 mg/kg administered through oral gavage by LC/MS/MS analysis
Format: ADME, organism-based
Conditions: in vivo
measured_attribute: Tmax (h)
Answer in h, number only, no unit symbol.

# compound, obs_value
rows = [
    ("COc1cc2c(cc1Nc1ncc(Cl)c(Nc3ccccc3S(=O)(=O)C(C)C)n1)CC/C(=N\\N1CCN(C)CC1)C2(C)C", 0.833),
]

Please examine the following record next.
Requested read-out: Tmax. Entry: COc1cc2c(cc1Nc1ncc(Cl)c(Nc3ccccc3S(=O)(=O)C(C)C)n1)CCC(N)C2(C)C (configuration not stated)
5.33

---

Molecular target: CYP2C19 (Homo sapiens)
Sequence (P33261 whole entry): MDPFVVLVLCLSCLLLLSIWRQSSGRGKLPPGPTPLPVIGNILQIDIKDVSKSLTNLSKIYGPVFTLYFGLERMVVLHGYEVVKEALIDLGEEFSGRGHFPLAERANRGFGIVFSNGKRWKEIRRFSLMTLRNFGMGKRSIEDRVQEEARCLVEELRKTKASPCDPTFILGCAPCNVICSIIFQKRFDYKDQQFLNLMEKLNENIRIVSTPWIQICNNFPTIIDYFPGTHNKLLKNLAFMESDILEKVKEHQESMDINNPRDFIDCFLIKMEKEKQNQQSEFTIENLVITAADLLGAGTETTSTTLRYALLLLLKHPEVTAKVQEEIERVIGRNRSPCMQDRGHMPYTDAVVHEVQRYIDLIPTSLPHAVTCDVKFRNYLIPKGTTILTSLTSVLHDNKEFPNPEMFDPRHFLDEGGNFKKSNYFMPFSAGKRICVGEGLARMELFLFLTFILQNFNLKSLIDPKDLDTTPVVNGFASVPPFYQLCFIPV
Experiment: Inhibition of CYP2C19 (unknown origin) at 10 uM
Type: ADME
measured_attribute: inhibition at 10 µM (%)
Number only, in %; omit the unit.

# compound, unit_symbol, inhibition at 10 µM
rows = [
    ("COc1cc2c(cc1Nc1ncc(Cl)c(Nc3ccccc3S(=O)(=O)C(C)C)n1)CC/C(=N\\N1CCN(C)CC1)C2(C)C", "%", 43.4),
]

Moving on to the next compound.
Can you look up the measured inhibition at 10 µM of COc1cc2c(cc1Nc1ncc(Cl)c(Nc3ccccc3S(=O)(=O)C(C)C)n1)CCC(N)C2(C)C (configuration not stated) for me?
72

---

Assay: AUCt in cannulated Sprague Dawley rat at 10 mg/kg administered through oral gavage by LC/MS/MS analysis
Format: ADME, organism-based
Details: in vivo
measured_attribute: AUC(0-t) (ng·h/mL)
The figure you give is taken to be in ng·h/mL; do not add the unit.

# molecule, obs_value
measured = [
    ("COc1cc2c(cc1Nc1ncc(Cl)c(Nc3ccccc3S(=O)(=O)C(C)C)n1)CC/C(=N\\N1CCN(C)CC1)C2(C)C", 3750),
]

Which value of AUC(0-t) has been reported for COc1cc2c(cc1Nc1ncc(Cl)c(Nc3ccccc3S(=O)(=O)C(C)C)n1)CCC(N)C2(C)C (configuration not stated) in the records?
8750

---

Molecular target: EML4-ALK (Homo sapiens) (UniProt Q9UM73+Q9HC35)
Sequence (Q9HC35 whole entry partner): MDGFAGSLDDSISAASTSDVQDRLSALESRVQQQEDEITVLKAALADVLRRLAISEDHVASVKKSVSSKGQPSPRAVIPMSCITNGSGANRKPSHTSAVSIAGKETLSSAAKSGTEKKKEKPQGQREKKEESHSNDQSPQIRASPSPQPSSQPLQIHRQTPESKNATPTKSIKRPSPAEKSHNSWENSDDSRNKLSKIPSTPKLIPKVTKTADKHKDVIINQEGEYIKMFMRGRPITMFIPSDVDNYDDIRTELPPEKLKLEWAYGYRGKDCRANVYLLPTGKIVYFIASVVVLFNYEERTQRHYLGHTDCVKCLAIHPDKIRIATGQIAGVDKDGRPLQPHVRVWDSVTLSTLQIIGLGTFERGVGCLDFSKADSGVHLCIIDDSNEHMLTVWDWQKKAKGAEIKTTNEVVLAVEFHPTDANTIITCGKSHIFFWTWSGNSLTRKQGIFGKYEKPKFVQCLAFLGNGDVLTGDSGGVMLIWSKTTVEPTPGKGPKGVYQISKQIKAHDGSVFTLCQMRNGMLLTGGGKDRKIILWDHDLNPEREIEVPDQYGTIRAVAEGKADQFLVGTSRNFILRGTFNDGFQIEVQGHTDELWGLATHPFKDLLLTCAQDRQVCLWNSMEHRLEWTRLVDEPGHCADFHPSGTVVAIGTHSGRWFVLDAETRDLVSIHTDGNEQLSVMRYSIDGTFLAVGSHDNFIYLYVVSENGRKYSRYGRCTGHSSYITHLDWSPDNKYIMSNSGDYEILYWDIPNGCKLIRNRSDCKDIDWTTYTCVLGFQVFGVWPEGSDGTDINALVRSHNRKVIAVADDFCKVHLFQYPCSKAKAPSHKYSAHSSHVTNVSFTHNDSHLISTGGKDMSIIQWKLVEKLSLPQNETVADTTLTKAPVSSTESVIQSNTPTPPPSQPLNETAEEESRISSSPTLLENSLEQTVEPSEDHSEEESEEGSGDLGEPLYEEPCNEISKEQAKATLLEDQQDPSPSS
Sequence (Q9UM73 19-1620 limits assumed): as the sequence (Q9UM73 19-1620 L1196M limits assumed) above, with M1178L counted along it
Experiment: Inhibition of EML4-ALK in human NCI-H3122 cells assessed as inhibition of cell proliferation after 72 hrs by SRB assay
Format: cell-based
Catalogue of CC50 readings, one per entry.
Number only, in nM; omit the unit.

// worked examples, CC50 included
# compound, unit_symbol, obs_value
rows = [
    ("COc1cc2c(cc1Nc1ncc(Cl)c(Nc3ccccc3S(=O)(=O)C(C)C)n1)C(C)(C)C(O)CC2 (stereo unspecified)", "nM", 726),
    ("COc1cc2c(cc1Nc1ncc(Cl)c(Nc3ccccc3S(=O)(=O)C(C)C)n1)C(C)(C)/C(=N/NC(=N)N)CC2", "nM", 2400),
    ("COc1cc2c(cc1Nc1ncc(Cl)c(Nc3ccccc3S(=O)(=O)C(C)C)n1)C(C)(C)C(N)CC2 (stereo unspecified)", "nM", 2090),
    ("COc1cc2c(cc1Nc1ncc(Cl)c(Nc3ccccc3S(=O)(=O)C(C)C)n1)C(C)(C)/C(=N/NC(C)=O)CC2", "nM", 146),
    ("COc1cc2c(cc1Nc1ncc(Cl)c(Nc3ccccc3S(=O)(=O)C(C)C)n1)C(C)(C)/C(=N/NC(N)=O)CC2", "nM", 146),
]

Please give the measured CC50 for this compound: COc1cc2c(cc1Nc1ncc(Cl)c(Nc3ccccc3S(=O)(=O)C(C)C)n1)C(C)(C)/C(=N/N1CCN(C)CC1)CC2
2830

Name the recorded CC50 for COc1cc2c(cc1Nc1ncc(Cl)c(Nc3ccccc3S(=O)(=O)C(C)C)n1)CC/C(=N\NC(=N)N)C2(C)C .
235

What does the record list as CC50 for COc1cc2c(cc1Nc1ncc(Cl)c(Nc3ccccc3S(=O)(=O)C(C)C)n1)C(C)(C)/C(=N/N1CCOCC1)CC2 ?
732

Which measured CC50 value corresponds to COc1cc2c(cc1Nc1ncc(Cl)c(Nc3ccccc3S(=O)(=O)C(C)C)n1)CC/C(=N\N1CCN(C)CC1)C2(C)C ?
14

Would you kindly share the measured CC50 for COc1cc2c(cc1Nc1ncc(Cl)c(Nc3ccccc3S(=O)(=O)C(C)C)n1)CC/C(=N\NC(C)=O)C2(C)C ?
128

For the compound shown here, COc1cc2c(cc1Nc1ncc(Cl)c(Nc3ccccc3S(=O)(=O)C(C)C)n1)CCC(O)C2(C)C (stereo unspecified) , give the reported CC50.
99

Given the compound Cc1cc(Nc2ncc(Cl)c(Nc3ccccc3S(=O)(=O)C(C)C)n2)c(OC(C)C)cc1C1CCNCC1 , what is its reported CC50?
38
